System tested: human PDE2A1 (Homo sapiens, UniProt O00408)
Construct: GST; purchased BPS Bioscience (San Diego, Calif.) 60020; host or cells: insect cells
Sequence (O00408 1-920 isoform O00408-2): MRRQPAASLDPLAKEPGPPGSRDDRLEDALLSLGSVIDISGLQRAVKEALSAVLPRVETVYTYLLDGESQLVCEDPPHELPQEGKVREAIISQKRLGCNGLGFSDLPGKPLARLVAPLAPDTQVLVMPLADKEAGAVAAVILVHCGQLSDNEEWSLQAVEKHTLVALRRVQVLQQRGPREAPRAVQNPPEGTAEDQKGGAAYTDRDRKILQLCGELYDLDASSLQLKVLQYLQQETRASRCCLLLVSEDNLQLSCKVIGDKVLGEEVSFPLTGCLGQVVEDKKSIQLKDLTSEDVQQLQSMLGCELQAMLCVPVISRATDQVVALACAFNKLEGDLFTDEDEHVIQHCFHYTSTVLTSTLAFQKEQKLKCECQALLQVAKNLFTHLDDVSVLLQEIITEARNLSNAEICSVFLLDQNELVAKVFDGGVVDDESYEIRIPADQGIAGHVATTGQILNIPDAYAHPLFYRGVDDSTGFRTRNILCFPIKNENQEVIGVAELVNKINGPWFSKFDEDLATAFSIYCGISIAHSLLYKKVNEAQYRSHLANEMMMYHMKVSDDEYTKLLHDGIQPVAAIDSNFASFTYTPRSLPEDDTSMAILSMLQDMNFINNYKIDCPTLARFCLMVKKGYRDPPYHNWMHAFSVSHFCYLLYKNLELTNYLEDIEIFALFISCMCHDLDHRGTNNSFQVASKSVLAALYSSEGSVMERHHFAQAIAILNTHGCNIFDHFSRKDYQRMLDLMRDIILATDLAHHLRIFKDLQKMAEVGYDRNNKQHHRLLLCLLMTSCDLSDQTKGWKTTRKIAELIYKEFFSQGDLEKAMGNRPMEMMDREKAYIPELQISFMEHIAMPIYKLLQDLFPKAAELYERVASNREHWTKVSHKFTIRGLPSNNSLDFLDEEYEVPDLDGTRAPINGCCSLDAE
Method summary: IMAP FP PDE selectivity panel, human PDE2A1
Assay type: biochemical
Study conditions: Lab B; read-out: Human PDE2 Ki (nM) Lab B
Test readout: Ki (nM)

P = Cc1cc(NC(c2ccc(C(F)(F)F)cc2Cl)C(C)(C)O)n2ncnc2n1 (single isomer, unassigned) [Example 105]
Q = CC(C)(O)[C@@H](Nc1cc(C(F)(F)F)cc2ncnn12)c1ccc(OC(F)(F)F)cc1F
R = COc1cc(N[C@@H](c2ccc(C(F)(F)F)c(F)c2)C(C)(C)O)n2ncnc2n1 (single isomer, unassigned)
S = CC(C)(O)C(Nc1cc(C(F)F)nc2ncnn12)c1ccc(OC(F)(F)F)cc1F (single isomer, unassigned) [Example 185]
Query block: Let's sort these by Ki, smallest first. Go ahead? Response field: labels, in requested order.
Result block: S, P, Q, R
(S: 10 nM, P: 38 nM, Q: 92 nM, R: 1690 nM)

a = Cc1cc(N[C@H](C)c2ccc(CC(F)(F)F)cc2)n2ncnc2n1
b = CC(C)(C)c1cc(NC2(c3ccc(C(F)(F)F)c(F)c3)CC2)n2ncnc2n1
c = CNc1nc2nc(C)cc(NC3(c4ccc(C(F)(F)F)c(F)c4)CC3)n2n1
Query block: Write the entries in order, lowest recorded Ki first. Response field: labels, in requested order.
Result block: c, b, a
(c: 10 nM, b: 72 nM, a: 108 nM)

Values from patent US10357481B2
